These data points were gathered from patent US20180099937A1.

biological target: SMYD2 (Homo sapiens, UniProt Q9NRG4); assay: Scintillation Proximity Assay (SPA) for detection of SMYD2 enzymatic inhibition; assay type: biochemical; parameters: The SMYD2 full length enzyme was produced in-house by expression (with an N-terminal 6× His tag) in E. coli; 6xHis (N); made in house; host or cells: E. coli; conditions: SMYD2 full length enzyme, p53 Peptide substrate 1.0 μM, 3H-SAM 60 nM; read-out: IC50 [mol/l] (SPA Assay)
Sequence (Q9NRG4 whole entry): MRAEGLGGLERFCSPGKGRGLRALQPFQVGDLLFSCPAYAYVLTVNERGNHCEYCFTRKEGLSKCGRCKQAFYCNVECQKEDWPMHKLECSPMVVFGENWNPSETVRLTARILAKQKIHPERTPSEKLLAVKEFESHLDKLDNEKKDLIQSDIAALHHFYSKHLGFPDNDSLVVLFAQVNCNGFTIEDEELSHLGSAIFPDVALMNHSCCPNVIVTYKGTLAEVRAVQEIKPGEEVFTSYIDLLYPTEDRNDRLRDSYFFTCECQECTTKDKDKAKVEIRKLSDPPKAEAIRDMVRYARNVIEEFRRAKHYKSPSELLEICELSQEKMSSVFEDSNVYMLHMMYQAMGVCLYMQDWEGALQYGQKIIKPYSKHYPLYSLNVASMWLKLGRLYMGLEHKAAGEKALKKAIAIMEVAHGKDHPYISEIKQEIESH
Satisfied if IC50 is below 100 nM. Not satisfied if not; exact matches included in Not satisfied.

INSERT INTO results (compound, class_label) VALUES
  ('CCN(C(=O)[C@H]1CCCN1)C1CN(/C(=N\C#N)Nc2cccc(OC(F)F)c2)N=C1c1ccc(Cl)c(C)c1 (mixture of isomers) [Example 37]', 'Satisfied'),
  ('CCN(C(=O)[C@H]1CCCN1)C1CN(/C(=N\C#N)Nc2cccc(OC(F)F)c2F)N=C1c1ccc(Cl)c(Cl)c1 (single isomer, unassigned) [Example 13.2]', 'Not satisfied'),
  ('CCN(C(=O)[C@H]1CCCN1)C1CN(/C(=N\C#N)Nc2cccc(OCC(F)(F)F)c2)N=C1c1ccc(Cl)c(Cl)c1 (mixture of isomers)', 'Not satisfied'),
  ('CCN(C(=O)c1cccc(=O)[nH]1)C1CN(/C(=N\C#N)Nc2cccc(OC(F)F)c2)N=C1c1ccc(Cl)c(Cl)c1 (single isomer, unassigned) [Example 5.2]', 'Not satisfied'),
  ('CCN(C(=O)[C@H]1C[C@@H](O)CN1)C1CN(/C(=N\C#N)Nc2ccc(F)c(OC(F)F)c2)N=C1c1ccc(Cl)c(Cl)c1 (mixture of isomers)', 'Not satisfied'),
  ('CCN(C(=O)[C@H]1CCCN1)C1CN(/C(=N\C#N)Nc2cccc(OC(F)F)c2F)N=C1c1ccc(Cl)c(Cl)c1 (single isomer, unassigned) [Example 13.1]', 'Satisfied'),
  ('CCN(C(=O)[C@H]1CCCN1)C1CN(/C(=N\C#N)Nc2ccc(F)c(OC(F)(F)F)c2)N=C1c1ccc(Cl)c(Cl)c1 (single isomer, unassigned) [Example 22.1]', 'Satisfied'),
  ('CCN(C(=O)c1cccc(=O)[nH]1)C1CN(/C(=N\C#N)Nc2cccc(OC(F)(F)F)c2)N=C1c1ccc(Cl)c(Cl)c1 (racemic)', 'Not satisfied'),
  ('CCN(C(=O)[C@H]1CCCN1)C1CN(/C(=N\C#N)Nc2cc(C(F)(F)F)ccc2OC(F)(F)F)N=C1c1ccc(Cl)c(Cl)c1 (single isomer, unassigned) [Example 30.1]', 'Satisfied'),
  ('CCN(C(=O)[C@H]1CCCN1)C1CN(/C(=N\C#N)Nc2cc(OC)cc(C(F)(F)F)c2)N=C1c1ccc(Cl)c(Cl)c1 (mixture of isomers)', 'Satisfied'),
  ('CCN(C(=O)c1cccc(=O)[nH]1)C1CN(/C(=N\C#N)Nc2cccc(OC(F)F)c2)N=C1c1ccc(Cl)c(Cl)c1 (single isomer, unassigned) [Example 5.1]', 'Not satisfied'),
  ('CCN(C(=O)[C@H]1CCCN1)C1CN(/C(=N\C#N)Nc2cc(C(F)(F)F)ccc2OC(F)(F)F)N=C1c1ccc(Cl)c(Cl)c1 (mixture of isomers) [Example 30]', 'Satisfied'),
  ('CCN(C(=O)[C@H]1CCCN1)C1CN(/C(=N\C#N)Nc2cccc(OC(F)F)c2)N=C1c1ccc(Cl)c(C)c1 (single isomer, unassigned) [Example 37.2]', 'Not satisfied');

* * *

Below, each of the compounds is paired with its reported IC50 value.
biological target: UniProt:Q9NRG4; test: Scintillation Proximity Assay (SPA) for detection of SMYD2 enzymatic inhibition; type: biochemical; set-up: The SMYD2 full length enzyme was produced in-house by expression (with an N-terminal 6× His tag) in E. coli; 6xHis (N); made in house; host or cells: E. coli; details: SMYD2 full length enzyme, p53 Peptide substrate 1.0 μM, 3H-SAM 60 nM; read-out: IC50 [mol/l] (SPA Assay)
READOUT KIND: IC50 (nM)

INSERT INTO measurements (compound, test_target, observed) VALUES
  ('CCN(C(=O)[C@H]1CCCN1)C1CN(/C(=N\C#N)Nc2cccc(OC(F)F)c2)N=C1c1ccc(Cl)c(Cl)c1 (single isomer, unassigned) [Example 1.1]', 'UniProt:Q9NRG4', 4.45),
  ('CCN(C(=O)[C@H]1CCCN1)C1CN(/C(=N\C#N)Nc2cc(OC(F)(F)F)ccc2F)N=C1c1ccc(Cl)c(Cl)c1 (mixture of isomers)', 'UniProt:Q9NRG4', 61.3),
  ('CCN(C(=O)[C@H]1C[C@@H](F)CN1)C1CN(/C(=N\C#N)Nc2cccc(OC(F)F)c2)N=C1c1ccc(Cl)c(C)c1 (single isomer, unassigned) [Example 38.1]', 'UniProt:Q9NRG4', 30),
  ('CCN(C(=O)[C@H]1CCCN1)C1CN(/C(=N\C#N)Nc2cccc(OC(F)(F)F)c2)N=C1c1ccc(Cl)c(Cl)c1 (single isomer, unassigned) [Example 17.2]', 'UniProt:Q9NRG4', 1380),
  ('CC1(C)CN[C@@H](C(=O)NC2CN(/C(=N\C#N)Nc3cccc(OC(F)F)c3)N=C2c2ccc(Cl)c(Cl)c2)C1 (mixture of isomers)', 'UniProt:Q9NRG4', 490),
  ('C[C@]1(C(=O)NC2CN(/C(=N\C#N)Nc3cccc(OC(F)F)c3)N=C2c2ccc(Cl)c(Cl)c2)CCCN1 (mixture of isomers) [Example 6]', 'UniProt:Q9NRG4', 11.3);

* * *

Below, each of the molecules is paired with its reported pIC50 value.
biological target: SMYD2 (Homo sapiens, UniProt Q9NRG4); assay: Scintillation Proximity Assay (SPA) for detection of SMYD2 enzymatic inhibition; type: biochemical; design: The SMYD2 full length enzyme was produced in-house by expression (with an N-terminal 6× His tag) in E. coli; 6xHis (N); made in house; host or cells: E. coli; settings: SMYD2 full length enzyme, p53 Peptide substrate 1.0 μM, 3H-SAM 60 nM; read-out: IC50 [mol/l] (SPA Assay)
pIC50: −log10 of the molar value.
READOUT KIND: pIC50

INSERT INTO assay_data (molecule, observed) VALUES
  ('CCN(C(=O)[C@H]1CCCN1)C1CN(/C(=N\C#N)Nc2cccc(CC(F)(F)F)c2)N=C1c1ccc(Cl)c(Cl)c1 (single isomer, unassigned) [Example 31.2]', 6.68),
  ('CCN(C(=O)[C@H]1C[C@@H](O)CN1)C1CN(/C(=N\C#N)Nc2cccc(OC(F)F)c2)N=C1c1ccc(Cl)c(Cl)c1 (single isomer, unassigned) [Example 3.2]', 5.65),
  ('CCN(C(=O)[C@H]1C[C@@H](O)CN1)C1CN(/C(=N\C#N)Nc2cc(C(F)(F)F)ccc2OC(F)(F)F)N=C1c1ccc(Cl)c(Cl)c1 (mixture of isomers) [Example 29]', 6.66),
  ('CCN(C(=O)[C@H]1CCCN1)C1CN(/C(=N\C#N)Nc2cc(C(F)(F)F)ccc2OC)N=C1c1ccc(Cl)c(Cl)c1 (mixture of isomers) [Example 27]', 8.34),
  ('CCN(C(=O)[C@H]1CCCN1)C1CN(/C(=N\C#N)Nc2cc(C(F)(F)F)ccc2OC(F)(F)F)N=C1c1ccc(Cl)c(Cl)c1 (single isomer, unassigned) [Example 30.2]', 5.81),
  ('CCN(C(=O)[C@H]1CCN1)C1CN(/C(=N\C#N)Nc2cccc(OC(F)F)c2)N=C1c1ccc(Cl)c(Cl)c1 (mixture of isomers) [Example 2]', 7.84),
  ('CCN(C(=O)[C@H]1C[C@@H](O)CN1)C1CN(/C(=N\C#N)Nc2cccc(OC(F)F)c2F)N=C1c1ccc(Cl)c(Cl)c1 (mixture of isomers) [Example 14]', 7.10),
  ('CCN(C(=O)[C@H]1C[C@@H](O)CN1)C1CN(/C(=N\C#N)Nc2cccc(OC(F)F)c2)N=C1c1ccc(Cl)c(C)c1 (single isomer, unassigned) [Example 39.1]', 7.49),
  ('CCN(C(=O)[C@H]1CCN1)C1CN(/C(=N\C#N)Nc2cccc(OC(F)F)c2)N=C1c1ccc(Cl)c(C)c1 (mixture of isomers) [Example 36]', 8.10);
